Kindly state pEC50 for each of the entries shown.
# tested-system: hGIPR (Homo sapiens, UniProt P48546)
# Sequence (P48546 22-466): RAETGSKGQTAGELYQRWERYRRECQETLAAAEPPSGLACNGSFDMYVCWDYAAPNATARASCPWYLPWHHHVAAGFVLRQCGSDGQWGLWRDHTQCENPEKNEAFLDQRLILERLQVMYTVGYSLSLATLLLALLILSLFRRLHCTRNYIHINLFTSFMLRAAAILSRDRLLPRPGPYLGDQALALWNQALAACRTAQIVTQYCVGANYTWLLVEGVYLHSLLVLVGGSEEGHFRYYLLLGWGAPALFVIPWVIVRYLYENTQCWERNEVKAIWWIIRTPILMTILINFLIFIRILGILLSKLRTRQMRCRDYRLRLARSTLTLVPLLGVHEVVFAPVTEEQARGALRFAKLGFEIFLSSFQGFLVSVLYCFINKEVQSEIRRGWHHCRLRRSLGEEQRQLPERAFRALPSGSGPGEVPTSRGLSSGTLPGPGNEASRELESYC
# experiment-description: Functional cAMP activation in the presence of 0.1% casein (no HSA);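 also: intracellular cAMP rise after 30 min at 37 °C read by HTRF against a standard curve, scaled between buffer alone (0%) and top control ligand concentration (100%), four-parameter fit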
# Assay type: cell-based
# condition-parameters: in the presence of 0.1% casein (no HSA); geometric mean; read-out: Relative cAMP EC50, hGIPR
Starred links: 1 amine or outer side, 2 acyl side, 3 side chain; linkers in the order of their positions; H or OH if unused. Non-standard residues stand in square brackets, D forms with d. Groups on a side chain read outwards from the residue. No end group written: not given here. *: point of attachment. C20 diacid = O=C(O)CCCCCCCCCCCCCCCCCCC(=O)*; C18 diacid = O=C(O)CCCCCCCCCCCCCCCCC(=O)*; Phe(4-CN) = N#Cc1ccc(C[C@H](N)C(=O)O)cc1; αMePhe(2-F) = C[C@](N)(Cc1ccccc1F)C(=O)O; γGlu = O=C(O)[C@H](CCC(=O)[*:2])N[*:1]; αMe4Pal = C[C@](N)(Cc1ccncc1)C(=O)O; αMeY = C[C@](N)(Cc1ccc(O)cc1)C(=O)O; 4Pal = N[C@@H](Cc1ccncc1)C(=O)O; αMeL = CC(C)C[C@](C)(N)C(=O)O; αMeS = C[C@](N)(CO)C(=O)O; Orn = NCCC[C@H](N)C(=O)O; Dap = NC[C@H](N)C(=O)O; AEEA = NCCOCCOCC(=O)O; Aib = CC(C)(N)C(=O)O
Numbers only, as −log10 of the molar value.

Solved entries:
# substance, value
measured = [
    ("Y[Aib]QGTFTSDYSI[αMeL]LDKQAAK([AEEA-AEEA-γGlu-C20 diacid])QFVEWLLAGGPSSGEPPPGEG-NH2 [Example 320]", 9.56),
    ("H-Y[Aib]QGTFTSD[4Pal]SQ[αMeL]LDKK([γGlu-γGlu-C18 diacid])AQ[αMe4Pal]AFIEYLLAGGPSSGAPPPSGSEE-NH2 [Example 1036]", 9.94),
    ("H-Y[Aib]QGT[αMePhe(2-F)]TSDYSKLLDKIAQK([AEEA-γGlu-C18 diacid])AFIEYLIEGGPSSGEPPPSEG-NH2 [Example 330]", 10.11),
    ("H-Y[Aib]QGTFTSDFS[Orn][αMeL]LDKK([AEEA-AEEA-γGlu-C18 diacid])AQ[Aib]AFIEYLLE[Aib]G[4Pal]SSGAPPPSGE-NH2 [Example 189]", 10.16),
]

Parameter requested: pEC50. Apply to each item below.
1. H-Y[Aib]QGTFTSDFS[Orn][αMeL]LDKK([AEEA-γGlu-C20 diacid])AQ[Aib]AFIEWLLAGGPSSGEPPPSGE-NH2 [Example 103]
2. H-Y[Aib]QGTFTSDFS[Dap][αMeL]LDKK([AEEA-γGlu-C18 diacid])AQ[Aib]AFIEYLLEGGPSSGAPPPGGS-NH2 [Example 68]
3. H-Y[Aib]QGTFTSDYSK[αMeL]LDKK([AEEA-γGlu-C20 diacid])AQQAFIQWLIEGGPSSGEPPPSEG-NH2 [Example 314]
4. H-Y[Aib]QGTFTSD[4Pal]SQ[αMeL]LD[Orn]K([γGlu-γGlu-C18 diacid])AQ[αMe4Pal]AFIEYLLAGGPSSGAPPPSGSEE-NH2 [Example 1056]
5. H-Y[Aib]QGTFTSD[4Pal][αMeS]Q[αMeL]LD[Orn]K([dE-γGlu-C18 diacid])AQ[αMe4Pal]QFIE[αMeY]LIA[Aib]GPSSGAPPPSGGGE-NH2 [Example 1185]
6. H-Y[Aib]QGTFTSD[4Pal]S[Orn][αMeL]LDKK([Glu-γGlu-C18 diacid])AQ[αMe4Pal]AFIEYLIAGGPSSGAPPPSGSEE-NH2 [Example 1060]
7. H-Y[Aib]QGT[αMePhe(2-F)]TSD[Phe(4-CN)]SILLDKQAQK([AEEA-γGlu-γGlu-C20 diacid])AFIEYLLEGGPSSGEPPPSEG-NH2 [Example 352]
8. Y[Aib]QGTFTSDFS[Orn][αMeL]LDKK([AEEA-γGlu-C18 diacid])AQ[Aib]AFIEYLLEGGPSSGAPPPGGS-NH2 [Example 62]

[9.70, 9.34, 9.46, 10.03, 10.58, 9.65, 9.61, 9.84]
